# systemName: HERG channel (UniProt Q12809 1-1159, limits assumed)
# Sequence (Q12809 whole entry): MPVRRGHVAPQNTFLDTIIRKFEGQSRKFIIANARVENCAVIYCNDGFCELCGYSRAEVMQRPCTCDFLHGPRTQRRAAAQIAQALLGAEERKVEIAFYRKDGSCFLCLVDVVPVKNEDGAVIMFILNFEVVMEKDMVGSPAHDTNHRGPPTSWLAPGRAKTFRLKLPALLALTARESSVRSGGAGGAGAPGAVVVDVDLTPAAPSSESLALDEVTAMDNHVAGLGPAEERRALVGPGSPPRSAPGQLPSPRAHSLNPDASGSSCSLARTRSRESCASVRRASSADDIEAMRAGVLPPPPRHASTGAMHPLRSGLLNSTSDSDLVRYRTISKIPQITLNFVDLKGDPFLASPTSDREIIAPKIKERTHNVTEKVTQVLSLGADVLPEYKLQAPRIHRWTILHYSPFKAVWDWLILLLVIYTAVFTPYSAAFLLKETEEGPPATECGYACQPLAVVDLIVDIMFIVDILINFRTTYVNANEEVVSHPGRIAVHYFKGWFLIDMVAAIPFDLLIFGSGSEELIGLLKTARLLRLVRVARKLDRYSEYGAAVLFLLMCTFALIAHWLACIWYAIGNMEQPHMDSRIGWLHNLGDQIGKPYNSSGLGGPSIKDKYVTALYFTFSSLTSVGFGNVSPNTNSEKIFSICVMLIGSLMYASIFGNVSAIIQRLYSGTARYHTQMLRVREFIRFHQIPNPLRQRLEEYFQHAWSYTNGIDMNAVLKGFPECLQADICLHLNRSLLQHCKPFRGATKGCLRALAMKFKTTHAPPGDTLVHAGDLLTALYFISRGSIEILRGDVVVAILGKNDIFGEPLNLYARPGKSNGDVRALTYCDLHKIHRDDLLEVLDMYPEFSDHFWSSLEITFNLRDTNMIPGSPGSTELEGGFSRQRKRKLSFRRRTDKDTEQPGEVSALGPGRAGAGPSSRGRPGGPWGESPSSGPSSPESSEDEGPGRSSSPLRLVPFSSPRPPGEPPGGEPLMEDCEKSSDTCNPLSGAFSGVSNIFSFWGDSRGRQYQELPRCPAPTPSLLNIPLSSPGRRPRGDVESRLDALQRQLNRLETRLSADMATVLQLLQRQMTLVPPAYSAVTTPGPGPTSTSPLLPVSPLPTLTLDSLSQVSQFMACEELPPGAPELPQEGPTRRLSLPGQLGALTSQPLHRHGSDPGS
# experimentalDetails: cell-based or functional assay
*1 amine or outer side, *2 acyl side, *3 side chain or, on linkers, in order; H or OH if unused. Where no end group is shown, it is not given here. [ ]: non-standard residue; d: D form. NH(CH2)3(OCH2CH2)2O(CH2)3NH = C(CN[*:1])COCCOCCOCCCN[*:2]
readoutLabel: HERG inhibition Rb+ efflux (% Inhibition at 10 µM)
For clarity, give the value followed by its unit.

Before answering, review these 4 worked examples.
binder	result
ERMEFDVWDLYFEIVW-NH2 [A09 (ERMEFDVWDLYFEIVW-NH2)]	-1.6%
Ac-WDLYFEIVWE [A06 (Ac-WDLYFEIVWE)]	-6.4%
Ac-[dC][dI][dM][dF][dW][dY][dD][dE][dY][dE]-NH2 (SMILES CC[C@@H](C)[C@@H](NC(=O)[C@@H](CS)NC(C)=O)C(=O)N[C@H](CCSC)C(=O)N[C@H](Cc1ccccc1)C(=O)N[C@H](Cc1c[nH]c2ccccc12)C(=O)N[C@H](Cc1ccc(O)cc1)C(=O)N[C@H](CC(=O)O)C(=O)N[C@H](CCC(=O)O)C(=O)N[C@H](Cc1ccc(O)cc1)C(=O)N[C@H](CCC(=O)O)C(N)=O) [B03 (Ac-cimfwydeye-NH2)]	-2.1%
Ac-WDLYFEIVW[NH(CH2)3(OCH2CH2)2O(CH2)3NH]E [A07 (Ac-WDLYFEIVW-ttds-E)]	-3.4%

// switching to the query binder
Record Ac-PMKFDVWDLYFEIVW-NH2 [A02 (Ac-PMKFDVWDLYFEIVW-NH2)] . Reported HERG inhibition Rb+ efflux (% Inhibition at 10 µM): -3.3%
